Test: qHTS Assay for NPC1 Promoter Activators: Initial hit validation from the primary screen
Conditions: Huh7 NPC1 promoter-luciferase reporter, luminescence, 24 h; series mostly up to 46.1 µM
Records with an inconclusive call do not appear. Calls of active or inactive are those of the source. Calls come from the whole dose curve; as a rule, active = well fitted activation curve with a large enough effect; inconclusive = small, poorly fitted or top-dose-only effect; inactive = flat fitted curve, though single readings scatter.
Labels: active, inactive

[
  {
    "compound": "COc1cccc(C(C(=O)NC2CCCC2)N(CCC(C)C)C(=O)CCC(=O)Nc2cc(C)on2)c1 (configuration not stated)",
    "discreteLabel": "inactive"
  },
  {
    "compound": "CCCCCCC(=O)Nc1ccc(C(=O)N/N=C/c2cccnc2)cc1",
    "discreteLabel": "inactive"
  },
  {
    "compound": "CCOC(=O)CSc1nc2cc3c(cc2cc1C#N)OCO3",
    "discreteLabel": "active"
  },
  {
    "compound": "Cc1ccc2c(c1)sc1nc(=O)n(-c3ccccc3)c(=O)n12",
    "discreteLabel": "active"
  },
  {
    "compound": "COc1ccc(C(c2nnnn2CCc2ccccc2)N2CCN(C3CCCC3)CC2)cc1 (configuration not stated)",
    "discreteLabel": "inactive"
  },
  {
    "compound": "OCCC1CN(Cc2nc3ccccc3s2)CCN1C1CCCC1 (configuration not stated)",
    "discreteLabel": "inactive"
  },
  {
    "compound": "CC(=O)Nc1ccc(-c2csc(Nc3ncccn3)n2)cc1",
    "discreteLabel": "active"
  },
  {
    "compound": "Fc1ccc(-c2nc3nc4ccccc4nc3n2Cc2ccco2)cc1",
    "discreteLabel": "inactive"
  },
  {
    "compound": "O=C(NCC1CCCO1)C(c1ccc(F)cc1)N(Cc1ccc2c(c1)OCO2)C(=O)c1ccc(CN2CCOCC2)o1 (configuration not stated)",
    "discreteLabel": "inactive"
  },
  {
    "compound": "O=C(c1cccc(Oc2ccc([N+](=O)[O-])cc2)c1)N1CCOCC1",
    "discreteLabel": "inactive"
  },
  {
    "compound": "CCCOP(=O)(c1ccc(N(C)C)cc1)C(O)c1cccnc1 (configuration not stated)",
    "discreteLabel": "inactive"
  },
  {
    "compound": "CCN(CC)S(=O)(=O)c1ccc(NCc2ccccn2)nc1",
    "discreteLabel": "inactive"
  },
  {
    "compound": "CC(Sc1ncnc2c1cnn2-c1ccccc1)C(=O)Nc1ccc(N2CCOCC2)cc1 (configuration not stated)",
    "discreteLabel": "inactive"
  },
  {
    "compound": "NNC(=O)c1cccc(S(=O)(=O)Nc2cc(Cl)ccc2Cl)c1",
    "discreteLabel": "inactive"
  },
  {
    "compound": "COc1ccc(/C=C\\c2onc(C)c2S(=O)(=O)N2CCC(C(=O)NCCC(C)C)CC2)cc1",
    "discreteLabel": "inactive"
  },
  {
    "compound": "O=CN1CCN(C(=O)c2ccccc2Cl)CC1",
    "discreteLabel": "inactive"
  },
  {
    "compound": "O=C(NCCSCc1c(F)cccc1Cl)c1ccc(CN2CCOCC2)cc1",
    "discreteLabel": "inactive"
  },
  {
    "compound": "COCCNC(=O)Cn1nc(-c2ccccc2)c2ccccc2c1=O",
    "discreteLabel": "inactive"
  },
  {
    "compound": "O=C(C1COc2ccccc2O1)N1CCN(S(=O)(=O)c2ccccc2)CC1 (configuration not stated)",
    "discreteLabel": "inactive"
  },
  {
    "compound": "COc1ccccc1NC(=S)NCc1ccc(Cl)cc1",
    "discreteLabel": "inactive"
  },
  {
    "compound": "Cn1c(SCc2ccccc2)nnc1-c1cnccn1",
    "discreteLabel": "active"
  },
  {
    "compound": "CCCOC(=O)Cn1cnc2scc(-c3ccc(OC)cc3)c2c1=O",
    "discreteLabel": "inactive"
  },
  {
    "compound": "COc1ccc(S(=O)(=O)NC(C(=O)NCCc2ccccn2)C(C)C)cc1 (configuration not stated)",
    "discreteLabel": "inactive"
  },
  {
    "compound": "Brc1ccccc1-c1nnc(CSc2nnc3sc4ccccc4n23)o1",
    "discreteLabel": "inactive"
  },
  {
    "compound": "O=C(CCCN1C(=O)C(c2ccccc2)Oc2cccnc21)Nc1ccccc1Cl (configuration not stated)",
    "discreteLabel": "inactive"
  },
  {
    "compound": "Cc1ccc(C(=O)Nc2ccc(N3CCN(C)CC3)nc2)cc1",
    "discreteLabel": "active"
  },
  {
    "compound": "CCOC(=O)c1ccccc1NC(=O)CSc1nnc(Cc2cccn2C)n1-c1ccc(F)cc1",
    "discreteLabel": "inactive"
  },
  {
    "compound": "Cc1c(C(O)CN2CCN(Cc3ccc4c(c3)OCO4)CC2)c2ccccc2n1C (configuration not stated)",
    "discreteLabel": "inactive"
  },
  {
    "compound": "CCCNC(=O)C1CCN(S(=O)(=O)c2ccc3[nH]c(=O)ccc3c2)CC1",
    "discreteLabel": "inactive"
  },
  {
    "compound": "COc1ccc(NC(=O)CCCN2C(=O)C(c3ccccc3)Oc3cccnc32)cc1OC (configuration not stated)",
    "discreteLabel": "inactive"
  },
  {
    "compound": "CCCN(CCC)CCCNC(=O)c1cc2cc3ccc(Cl)cc3nc2o1",
    "discreteLabel": "inactive"
  },
  {
    "compound": "Cc1[nH]n(-c2cccc3ccccc23)c(=O)c1/C=N/c1sc2c(c1C#N)CCC2",
    "discreteLabel": "inactive"
  },
  {
    "compound": "Cc1cccc(C)c1NC(=O)Nc1cccs1",
    "discreteLabel": "inactive"
  },
  {
    "compound": "O=C(O)CSc1nnc(-c2ccncc2)n1CCc1ccccc1",
    "discreteLabel": "inactive"
  },
  {
    "compound": "CC(=O)NC(CCCN1C(=O)c2ccccc2C1=O)c1nnn(C)n1 (configuration not stated)",
    "discreteLabel": "inactive"
  },
  {
    "compound": "COc1ccc(NC(=O)Nc2ccc(Cc3ccncc3)cc2)cc1OC",
    "discreteLabel": "inactive"
  },
  {
    "compound": "CCCC(C)NC(=O)c1ccc(OCc2ccc(Cl)cc2)c(OC)c1 (configuration not stated)",
    "discreteLabel": "inactive"
  }
]
